Consider the following compounds; for each one, report its IC50 at 72 h.
assay: MTT assay, CCD39Lu; assay type: cell-based; settings: human, CCD39Lu cells (non-tumorigenic lung fibroblasts), read-out: Cytotoxic activity IC50, CCD39Lu
Kindly answer with a numeric value in µM, unit omitted.

IC50 at 72 h for `COc1ccc(NC(=O)c2ccc(F)cc2[N+](=O)[O-])cc1` ?
45.2

`COc1cc(NC(=S)c2ccc(NC(=S)c3cc(OC)c(OC)c(OC)c3)cc2)cc(OC)c1OC` , same question.
6.48

----------
experiment: MTT assay, MCF-12A; type: cell-based; settings: human, MCF-12A cells (non-tumorigenic breast epithelial), read-out: Cytotoxic activity IC50, MCF-12A
What IC50 at 72 h was measured for each of the following?

Look up IC50 at 72 h for this compound: COc1ccc(NC(=O)c2cc(Cl)ccc2[N+](=O)[O-])cc1 [Compound 3]
> 100 µM

Next record, please: COc1ccc(NC(=O)c2ccccc2NC(=O)COC(C)=O)cc1 [Compound 19]
> 100 µM

Quick one: COc1cc(NC(=S)c2cccc(NC(=S)c3cc(OC)c(OC)c(OC)c3)c2)cc(OC)c1OC [Compound 20]
> 100 µM

Also, Fc1cc(NC(=S)c2ccccc2NC(=S)c2cc(F)c(F)c(F)c2)cc(F)c1F [Compound 10] please.
1.22 µM

Do the same for COc1ccc(NC(=O)c2ccccc2[N+](=O)[O-])cc1 [Compound 1] please
> 100 µM
